Test system: A549/ATCC NSCLC
PROCEDURE_TEXT: NCI-60 one-dose screen, 48 h (100 = growth as untreated, 0 = no growth, -100 = all killed)
EXPERIMENTAL_PARAMETERS: 10 µM unless noted
The panel holds about 83,000 compounds, 20% with a hit somewhere; the sample as a whole holds those more often.
Assignment: determine reported growth for the given compounds.
Give bare numbers, in %.

Study these solved cases before continuing.
Request: Record request: growth value, item COc1cc(F)c(F)c(Nc2ccc(I)cc2F)c1NS(=O)(=O)C1(C[C@H](O)CO)CC1
Response: 26.3

Request: Also check O=C(Nc1ccc(-c2ccnc(Nc3ccc(N4CCOCC4)cc3)n2)cc1)[C@@H]1CCCN1
Response: 45

Request: Also check CC(C)NC[C@@H](C(=O)N1CCN(c2ncnc3c2[C@H](C)C[C@H]3O)CC1)c1ccc(Cl)cc1
Response: 38

Request: Also check S=C(NCc1ccc2c(c1)OCO2)N1CCN(c2ncnc3c2oc2ccccc23)CC1
Response: 25.6

Request: Also check Cc1nc(-c2cn3c(n2)-c2ccc(-c4cnn(C(C)(C)C(N)=O)c4)cc2OCC3)n(C(C)C)n1
Response: 8.09

I'm hoping you can list growth for every compound here, please.
1. CO[C@H]1C[C@@H]2CC[C@@H](C)[C@@](O)(O2)C(=O)C(=O)N2CCCC[C@H]2C(=O)O[C@H]([C@H](C)C[C@@H]2CC[C@@H](O)[C@H](OC)C2)CC(=O)[C@H](C)/C=C(\C)[C@@H](O)[C@@H](OC)C(=O)[C@H](C)C[C@H](C)\C=C/C=C/C=C/1C
2. CC(N)C(Cc1ccccc1)c1ccc(Cl)cc1 (centres undefined)
3. O=C(Cn1c(=O)ccn(CCCCCCCCOc2ccc(Br)cc2)c1=O)Nc1ccc(Oc2ccc(Cl)cc2)cc1
4. COc1cc(-c2nc(C(=O)Nc3ccc(C)cc3)nn2-c2ccc(F)c(F)c2)cc(OC)c1OC
5. CCOc1cc2ncc(C#N)c(Nc3ccc(F)c(Cl)c3)c2cc1NC(=O)/C=C/CN(C)C
6. CN(C)C[C@@H]1CCn2cc(c3ccccc32)C2=C(C(=O)NC2=O)c2cn(c3ccccc23)CCO1
7. CCc1nc(C(N)=O)c(Nc2ccc(N3CCC(N4CCN(C)CC4)CC3)c(OC)c2)nc1NC1CCOCC1
8. N#CC[C@H](C1CCCC1)n1cc(-c2ncnc3[nH]ccc23)cn1

Response:
1. 35.1
2. 76.2
3. 54.4
4. 96.2
5. -30.6
6. -12.4
7. 12.4
8. 43.8

I'm hoping you can list growth for every compound here, please.
1. COCC(=O)NC/C=C/c1ccc2ncnc(Nc3ccc(Oc4ccc(C)nc4)c(C)c3)c2c1
2. CN1CCN(Cc2ccc(NC(=O)c3[nH]ncc3Nc3ncnc4sc5c(c34)CCCC5)cc2)CC1

Response:
[46, -58.2]

The reported measurements were obtained from PubChem BioAssay (NCI).
